System: Enterococcus sp.
Assay: in vitro antibacterial evaluation, MIC by broth dilution
Type: cell-based
Settings: strain GC 4552; broth dilution, 18 hours at 35° C.
Measured MIC Enterococcus faecalis (GC 4552), listed per entry for reference.

Please review the entries below; each comes with its answer.
molecule	target	quantity	value observed
CC(C1CCCCC1)C1NC(=O)CNC(=O)C(CO)NC(=O)C(C(O)C2CNC(=N)N2C2OC(CO)C(O)C(O)C2O)NC(=O)C(C(O)C2CNC(=N)N2)NC(=O)C(CC2CCC(OC3OC(CO)C(OC4OC(CO)C(O)C(O)C4O)C(O)C3O)CC2)NC1=O (stereo not drawn) [Example 53a]	Enterococcus sp.	MIC Enterococcus faecalis (GC 4552)	>128 µg/mL
CCC(=O)Nc1cc(CC2NC(=O)C(C(C)c3ccccc3)NC(=O)CNC(=O)C(CO)NC(=O)C(C(O)C3CNC(=N)N3C3OC(CO)C(O)C(O)C3O)NC(=O)C(C(O)C3CNC(=N)N3)NC2=O)ccc1O (stereo not drawn) [Example 14]	Enterococcus sp.	MIC Enterococcus faecalis (GC 4552)	>128 µg/mL

Field: next molecule
Value wanted: MIC Enterococcus faecalis (GC 4552) (Enterococcus sp.) of entry CC(c1ccccc1)C1NC(=O)CNC(=O)C(CO)NC(=O)C(C(O)C2CNC(=N)N2C2OC(CO)C(O)C(O)C2O)NC(=O)C(C(O)C2CNC(=N)N2)NC(=O)C(Cc2ccc3oc(-c4ccc(C(=O)O)cc4)nc3c2)NC1=O (stereo not drawn) [Example 25]
>128 µg/mL
